- system-under-test: T1, human PD-L1 ECD-His (human, UniProt Q9NZQ7 19-238)
- T1 construct: extracellular domain; Analyte in all SPR and BLI runs; also called hPD-L1_ECD-His; hPD-L1 ECD-His; not shown: His tag
- T1 sequence (Q9NZQ7 19-238): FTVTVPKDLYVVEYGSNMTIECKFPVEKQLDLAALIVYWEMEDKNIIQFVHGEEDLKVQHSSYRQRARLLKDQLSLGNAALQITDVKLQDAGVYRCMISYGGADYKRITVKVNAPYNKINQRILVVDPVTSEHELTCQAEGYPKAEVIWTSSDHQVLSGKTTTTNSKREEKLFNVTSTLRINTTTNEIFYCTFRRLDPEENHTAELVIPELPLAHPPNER
- protocol-notes: SPR, ratio of KD to ref-1
quantity-name: Improvement over ref-1 (fold)
Kindly provide the numeric value in fold only, without the unit symbol.

binder | value-unit | Improvement over ref-1
PL2#3 IgG4 (antibody, V domains shown, Human IgG4) VH: EVQLVQSGGGLVKPGGSLRLSCAASGFTFSSYTMNWVRQAPGKGLEWVSSISSGSDYLYYADSVKGRFTISRDNAKNSLYLQMNSLRAEDTAVYYCARNELRWYPQAGAFDRWGQGTMVTVSS VL: QSVVTQPPSMSAAPGQRVTISCSGSSSYIESSYVGWYQQLPGTAPRLLIYDDDMRPSGIPDRFSGSKSGTSATLAITGLQTGDEADYYCEIWRSGLGGVFGGGTKLTVL | fold | 2.64

Turning to the following binder.
### Prompt I have this binder here, PL2#3 mtIgG1 (N297A) (antibody, V domains shown, N297A mutant of human IgG1 Fc backbone) VH: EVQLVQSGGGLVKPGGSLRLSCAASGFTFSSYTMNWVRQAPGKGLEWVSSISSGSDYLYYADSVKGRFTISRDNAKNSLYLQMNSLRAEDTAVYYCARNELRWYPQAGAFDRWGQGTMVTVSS VL: QSVVTQPPSMSAAPGQRVTISCSGSSSYIESSYVGWYQQLPGTAPRLLIYDDDMRPSGIPDRFSGSKSGTSATLAITGLQTGDEADYYCEIWRSGLGGVFGGGTKLTVLS , and I need its recorded Improvement over ref-1.
### Response 2.86

These measurements were taken from patent US20190225691A1.
